# System: HCI-024 (organoid from a breast cancer xenograft)
# test: CTG-3D luminescence at 96 h relative to day-0 seeding control (ratio to day 0); higher = more growth / less cytotoxicity; PDxO 3D drug screen (set 2), 96 h, CTG-3D normalised to day-0 seeding control.
# condition-set: 100 µM; days in culture: 254
Is CTG-3D luminescence at 96 h at least 0.2? Then 1 (yes). If not, 0 (no).

- compound: "CC(C)n1nc(-c2ccc3oc(N)nc3c2)c2c(N)ncnc21"
  class-assignment: "0 (no)"
- compound: "COc1cccc2c1C(=O)c1c(O)c3c(c(O)c1C2=O)C[C@@](O)(C(=O)CO)C[C@@H]3O[C@H]1C[C@H](N)[C@@H](O)[C@H](C)O1 [epirubicin]"
  class-assignment: "0 (no)"
- compound: "Nc1cc(C(F)(F)F)c(-c2cc(N3CCOCC3)nc(N3CCOCC3)n2)cn1"
  class-assignment: "1 (yes)"
- compound: "O=C(c1cc(Cc2n[nH]c(=O)c3ccccc23)ccc1F)N1CCN(C(=O)C2CC2)CC1"
  class-assignment: "1 (yes)"
- compound: "CO[C@H]1C[C@@H]2CC[C@@H](C)[C@@](O)(O2)C(=O)C(=O)N2CCCC[C@H]2C(=O)O[C@H]([C@H](C)C[C@@H]2CC[C@@H](O)[C@H](OC)C2)CC(=O)[C@H](C)/C=C(\\C)[C@@H](O)[C@@H](OC)C(=O)[C@H](C)C[C@H](C)/C=C/C=C/C=C/1C"
  class-assignment: "0 (no)"
- compound: "CC(=O)c1c(C)c2cnc(Nc3ccc(N4CCNCC4)cn3)nc2n(C2CCCC2)c1=O"
  class-assignment: "1 (yes)"
- compound: "Cc1c(CN2CCN(C(=O)[C@H](C)O)CC2)sc2c(N3CCOCC3)nc(-c3cnc(N)nc3)nc12"
  class-assignment: "1 (yes)"

---

# Tested on: HCI-010 (organoid from a breast cancer xenograft)
# test: CTG-3D luminescence at 96 h relative to day-0 seeding control (ratio to day 0); higher = more growth / less cytotoxicity; PDxO 3D drug screen, 96 h, CTG-3D normalised to day-0 seeding control.
# condition-set: 1 µM; days in culture: 52

- compound: "CC(C)n1nc(-c2ccc3oc(N)nc3c2)c2c(N)ncnc21 [sapanisertib]"
  measurement-target: "HCI-010"
  CTG-3D luminescence at 96 h: 0.693
- compound: "CN(Cc1cnc2nc(N)nc(N)c2n1)c1ccc(C(=O)N[C@@H](CCC(=O)O)C(=O)O)cc1 [methotrexate]"
  measurement-target: "HCI-010"
  CTG-3D luminescence at 96 h: 2.58
- compound: "C[C@@H]1COCCN1c1cc(C2([S@](C)(=N)=O)CC2)nc(-c2cc[nH]c3nccc2-3)n1 [ceralasertib]"
  measurement-target: "HCI-010"
  CTG-3D luminescence at 96 h: 0.835
- compound: "CC(C)(C(=O)NCC(F)(F)C(F)(F)F)C(=O)N[C@@H]1C(=O)Nc2ccccc2-c2ccccc21"
  measurement-target: "HCI-010"
  CTG-3D luminescence at 96 h: 1.86

---

# System: HCI-016 (organoid from a triple-negative breast cancer xenograft)
# test: CTG-3D luminescence at 96 h relative to day-0 seeding control (ratio to day 0); higher = more growth / less cytotoxicity; PDxO 3D drug screen, 96 h, CTG-3D normalised to day-0 seeding control.
# condition-set: 1 µM; days in culture: 172
Returns one of 1.0 or 0.0; 1.0 when CTG-3D luminescence at 96 h is >= 1.

- compound: "NC(=O)c1cccc2cn(-c3ccc([C@@H]4CCCNC4)cc3)nc12 [niraparib]"
  class-assignment: 1.0
- compound: "C[C@]12CC[C@@H]3c4ccc(O)cc4C[C@@H](CCCCCCCCC[S+]([O-])CCCC(F)(F)C(F)(F)F)[C@H]3[C@@H]1CC[C@@H]2O (stereo partly specified) [fulvestrant]"
  class-assignment: 1.0
- compound: "C=CC(=O)N1CCC[C@@H](n2nc(-c3ccc(Oc4ccccc4)cc3)c3c(N)ncnc32)C1 [ibrutinib]"
  class-assignment: 1.0
- compound: "CC(C)n1nc(-c2ccc3oc(N)nc3c2)c2c(N)ncnc21 [sapanisertib]"
  class-assignment: 0.0
- compound: "Cc1cc(Nc2ncc(Cl)c(Nc3ccccc3S(=O)(=O)C(C)C)n2)c(OC(C)C)cc1C1CCNCC1 [ceritinib]"
  class-assignment: 1.0
- compound: "C[C@@H]1COCCN1c1cc(C2([S@](C)(=N)=O)CC2)nc(-c2cc[nH]c3nccc2-3)n1 [ceralasertib]"
  class-assignment: 1.0

---

This listing pairs compounds with measured CTG-3D luminescence at 96 h.
# System: HCI-002 (organoid from a triple-negative breast cancer xenograft)
# test: CTG-3D luminescence at 96 h relative to day-0 seeding control (ratio to day 0); higher = more growth / less cytotoxicity; PDxO 3D drug screen, 96 h, CTG-3D normalised to day-0 seeding control.
# condition-set: 0.00025 µM; days in culture: 62
property: CTG-3D luminescence at 96 h

- compound: "O=C(/C=C/c1cccnc1)NCCCCC1CCN(C(=O)c2ccccc2)CC1 [FK866]"
  number: 2.55
- compound: "NC(=O)Nc1cc(-c2cccc(F)c2)sc1C(=O)N[C@H]1CCCNC1 [AZD7762]"
  number: 2.46
- compound: "NC1(C(=O)N[C@@H](CCO)c2ccc(Cl)cc2)CCN(c2nc[nH]c3nccc2-3)CC1 [capivasertib]"
  number: 2.61
- compound: "C[C@@H]1COCCN1c1cc(C2([S@](C)(=N)=O)CC2)nc(-c2cc[nH]c3nccc2-3)n1 [ceralasertib]"
  number: 2.51
- compound: "CCc1c2c(nc3ccc(O)cc13)-c1cc3c(c(=O)n1C2)COC(=O)[C@]3(O)CC [SN-38]"
  number: 2.44
- compound: "NC(=O)c1cccc2cn(-c3ccc([C@@H]4CCCNC4)cc3)nc12 [niraparib]"
  number: 3
- compound: "Cc1cc(Nc2ncnc3ccc(NC4=NC(C)(C)CO4)cc23)ccc1Oc1ccn2ncnc2c1 [tucatinib]"
  number: 2.54

---

# Test system: HCI-024
# test: CTG-3D luminescence at 96 h relative to day-0 seeding control (ratio to day 0); higher = more growth / less cytotoxicity; PDxO 3D drug screen, 96 h, CTG-3D normalised to day-0 seeding control.
# condition-set: 625 fM; days in culture: 105
Label y for high-side CTG-3D luminescence at 96 h (at or above 2) and n for low-side CTG-3D luminescence at 96 h (below it).

- molecule: "CN(Cc1cnc2nc(N)nc(N)c2n1)c1ccc(C(=O)N[C@@H](CCC(=O)O)C(=O)O)cc1 [methotrexate]"
  class-assignment: "n"
- molecule: "O=C(/C=C/c1cccnc1)NCCCCC1CCN(C(=O)c2ccccc2)CC1"
  class-assignment: "y"
- molecule: "CCc1c2c(nc3ccc(O)cc13)-c1cc3c(c(=O)n1C2)COC(=O)[C@]3(O)CC"
  class-assignment: "n"
- molecule: "NC(=O)Nc1cc(-c2cccc(F)c2)sc1C(=O)N[C@H]1CCCNC1"
  class-assignment: "n"
- molecule: "C[C@@H]1COCCN1c1cc(C2([S@](C)(=N)=O)CC2)nc(-c2cc[nH]c3nccc2-3)n1"
  class-assignment: "n"
- molecule: "CCN(c1cc(C#CCN2CCOCC2)cc(C(=O)NCc2c(C)cc(C)[nH]c2=O)c1C)[C@H]1CC[C@H](N(C)CCOC)CC1"
  class-assignment: "n"
- molecule: "C/C=C1\\NC(=O)[C@H]2CSSCC/C=C/[C@H](CC(=O)N[C@H](C(C)C)C(=O)N2)OC(=O)[C@H](C(C)C)NC1=O"
  class-assignment: "n"
- molecule: "Cc1cc(Nc2ncnc3ccc(NC4=NC(C)(C)CO4)cc23)ccc1Oc1ccn2ncnc2c1"
  class-assignment: "y"
- molecule: "C=CCn1c(=O)c2cnc(Nc3ccc(N4CCN(C)CC4)cc3)nc2n1-c1cccc(C(C)(C)O)n1"
  class-assignment: "y"
- molecule: "CC1(C)CCC(c2ccc(Cl)cc2)=C(CN2CCN(c3ccc(C(=O)NS(=O)(=O)c4ccc(N[C@H](CCN5CCOCC5)CSc5ccccc5)c(S(=O)(=O)C(F)(F)F)c4)cc3)CC2)C1"
  class-assignment: "n"
- molecule: "O=C(O)C1(C(=O)O)CCC1.[NH2-].[NH2-].[Pt+2]"
  class-assignment: "n"
- molecule: "C=CC(=O)N1CCC[C@@H](n2nc(-c3ccc(Oc4ccccc4)cc3)c3c(N)ncnc32)C1"
  class-assignment: "n"

---

# Tested on: HCI-001 (organoid from a triple-negative breast cancer xenograft)
# test: CTG-3D luminescence at 96 h relative to day-0 seeding control (ratio to day 0); higher = more growth / less cytotoxicity; PDxO 3D drug screen, 96 h, CTG-3D normalised to day-0 seeding control.
# condition-set: 10 µM; days in culture: 346
# label = condition met if CTG-3D luminescence at 96 h >= 1 else condition not met

- molecule: "CN(Cc1cnc2nc(N)nc(N)c2n1)c1ccc(C(=O)N[C@@H](CCC(=O)O)C(=O)O)cc1 [methotrexate]"
  class-assignment: "condition met"
- molecule: "O=C(c1ccc(F)c(F)c1Nc1ccc(I)cc1F)N1CC(O)([C@@H]2CCCCN2)C1"
  class-assignment: "condition met"
- molecule: "CC1(C)CCC(c2ccc(Cl)cc2)=C(CN2CCN(c3ccc(C(=O)NS(=O)(=O)c4ccc(N[C@H](CCN5CCOCC5)CSc5ccccc5)c(S(=O)(=O)C(F)(F)F)c4)cc3)CC2)C1"
  class-assignment: "condition not met"
- molecule: "Cc1nc(-c2cn3c(n2)-c2ccc(-c4cnn(C(C)(C)C(N)=O)c4)cc2OCC3)n(C(C)C)n1"
  class-assignment: "condition not met"
- molecule: "C[C@H](NC(=O)CCC(F)(F)F)C(=O)N[C@@H]1C(=O)N(CCO)c2ncccc2-c2ccccc21"
  class-assignment: "condition met"
